Entry source: patent US20240376207A1

- target_system: T1, cynomolgus monkey PVRIG expressed on cells (cynomolgus monkey, UniProt A0A2K5WVV8 1-322)
- T1 construct: whole, on cells; also called Monkey PVRIG FACS; cells overexpressing cynomolgus monkey PVRIG
- T1 sequence: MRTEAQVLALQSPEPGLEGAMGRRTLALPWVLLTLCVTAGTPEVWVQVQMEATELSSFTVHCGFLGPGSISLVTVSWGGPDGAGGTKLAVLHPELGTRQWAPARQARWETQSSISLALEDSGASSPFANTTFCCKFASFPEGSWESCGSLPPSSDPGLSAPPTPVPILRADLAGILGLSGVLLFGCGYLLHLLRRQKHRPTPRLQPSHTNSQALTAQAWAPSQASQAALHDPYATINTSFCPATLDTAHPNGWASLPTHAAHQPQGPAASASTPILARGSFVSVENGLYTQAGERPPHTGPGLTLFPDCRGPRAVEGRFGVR
- run_description: FACS, HEK293 cells overexpressing target
- From the text: A flow cytometer (FACS) was used to detect binding properties of anti-PVRIG antibodies. A cell strain overexpressing human or cynomolgus monkey PVRIG was constructed, and after the addition of the antibody, the activity of the binding of the antibody to the antigen was detected by the addition of a secondary antibody. […]
measurement_type: EC50 (nM)
State just the number; it will be interpreted in nM.

Example results:
binder: anti-PVRIG antibody 39 (antibody, human IgG4 S228P, F234A L235A, V domains shown, no light chain) VH: QVQLVESGGGSVQAGGSLRLSCAASRYTSRTDCMGWFRQAPGKEREGVAHIDSDGIPRYVESVKGRFTISQDHAKNTLYLQMNSLKPEDSATYYCVVGFKFGDYCAPNDWGQGTQVTVSS
EC50, nM: 6.97
//
binder: anti-PVRIG antibody 38 (antibody, human IgG4 S228P, F234A L235A, V domains shown, no light chain) VH: QVQLVESGGGSVQAGGSLRLSCAASPSTYGPSDMAWFRQAPGKQREGVATISAAGRLTYYTDSVRGRFTISRDNAKNTMYLQMNSLKPEDTAMYYCAADFAGGSSLFADYKYWGQGTQVTVSS
EC50, nM: 0.34
//
binder: anti-PVRIG antibody 151 (antibody, human IgG4 S228P, F234A L235A, V domains shown, no light chain) VH: HVQLVESGGGSVQAGGSLRLSCVASASGFTYRPYCMAWFRQAPGKEREAVAGIDIFGGTTYADSVKGRFTASRDNAGFSLFLQMNDLKPEDTAMYYCAAGDSPDGRCPPLGQGLNYWGQGTQVTVSS
EC50, nM: 2.23

Then there is this binder:
Q: Find the measured EC50 of anti-PVRIG antibody 30 (antibody, human IgG4 S228P, F234A L235A, V domains shown, no light chain) VH: HVQLVESGGGSVQAGGSLRLSCEASGYSYSGDCMGWFRRAPGKERDEGVATIDNAGRIKYADSVKGRFTISHGNGKYILYLQMNSLKPEDTDMYYCAAGWTFGGNCSPADWGQGTQVTVSS and report it.
Result: 0.02
